System: Rattus norvegicus
Test: Biodistribution in Rat blood after 5 minutes of iv administration
Assay type: ADME, organism-based
Conditions: in vivo
measure-name: Biodistribution
Please make sure the unit comes right after the number.

Could you share what Biodistribution was measured for `Nc1c(I)cc(I)c(CCC(=O)OCC(COC(=O)CCc2c(I)cc(I)c(N)c2I)OC(=O)CCc2c(I)cc(I)c(N)c2I)c1I` , tested on Rattus norvegicus?
2.15%

Could you share what Biodistribution was measured for `Nc1c(I)cc(I)c(CCCCCCCCCCCC(=O)OCC(COC(=O)CCCCCCCCCCCc2c(I)cc(I)c(N)c2I)OC(=O)CCCCCCCCCCCc2c(I)cc(I)c(N)c2I)c1I` , tested on Rattus norvegicus?
1.46%

Kindly consider the entry below.
Could you share what Biodistribution was measured for `CCCCCCCCCCCCCCCC(=O)OC(COC(=O)CCCCCCCCCCCCCCCCc1c(I)cc(I)c(N)c1I)COC(=O)CCCCCCCCCCCCCCCCc1c(I)cc(I)c(N)c1I` , tested on Rattus norvegicus?
4.78%
